Lab note: IC50 readings collected with UniProt:P06276 for the following compounds.

>  <Compound>
Cc1c(C)c2c(c(C)c1O)CCC(C)(C(=O)NCCCCCCCCNc1c3c(nc4ccccc14)CCCC3)O2 (stereo not drawn)

>  <IC50 [nM]>
160

$$$$
>  <Compound>
COc1ccc2nc3c(c(NCCCCNC(=O)C4(C)CCc5c(C)c(O)c(C)c(C)c5O4)c2c1)CCCC3 (stereo not drawn)

>  <IC50 [nM]>
290

$$$$
>  <Compound>
Cc1c(C)c2c(c(C)c1O)CCC(C)(C(=O)NCCCCNc1c3c(nc4cc(Cl)ccc14)CCCC3)O2 (stereo not drawn)

>  <IC50 [nM]>
90

$$$$
>  <Compound>
Cc1c(C)c2c(c(C)c1O)CCC(C)(C(=O)NCCNc1c3c(nc4ccccc14)CCCC3)O2 (stereo not drawn)

>  <IC50 [nM]>
60

$$$$
>  <Compound>
Cc1c(C)c2c(c(C)c1O)CCC(C)(C(=O)NCCCNc1c3c(nc4ccccc14)CCCC3)O2 (stereo not drawn)

>  <IC50 [nM]>
80

$$$$
>  <Compound>
Cc1c(C)c2c(c(C)c1O)CCC(C)(C(=O)NCCCCCNc1c3c(nc4cc(Cl)ccc14)CCCC3)O2 (stereo not drawn)

>  <IC50 [nM]>
130

$$$$
>  <Compound>
Cc1c(C)c2c(c(C)c1O)CCC(C)(C(=O)NCCCCCCNc1c3c(nc4cc(Cl)ccc14)CCCC3)O2 (stereo not drawn)

>  <IC50 [nM]>
400

$$$$
>  <Compound>
Cc1c(C)c2c(c(C)c1O)CCC(C)(C(=O)NCCCCCCCNc1c3c(nc4ccccc14)CCCC3)O2 (stereo not drawn)

>  <IC50 [nM]>
130

$$$$

----------
pIC50: −log10 of the molar value.
Record: pIC50 reported on Cholinesterase (Homo sapiens, UniProt P06276).
Sequence (P06276 whole entry): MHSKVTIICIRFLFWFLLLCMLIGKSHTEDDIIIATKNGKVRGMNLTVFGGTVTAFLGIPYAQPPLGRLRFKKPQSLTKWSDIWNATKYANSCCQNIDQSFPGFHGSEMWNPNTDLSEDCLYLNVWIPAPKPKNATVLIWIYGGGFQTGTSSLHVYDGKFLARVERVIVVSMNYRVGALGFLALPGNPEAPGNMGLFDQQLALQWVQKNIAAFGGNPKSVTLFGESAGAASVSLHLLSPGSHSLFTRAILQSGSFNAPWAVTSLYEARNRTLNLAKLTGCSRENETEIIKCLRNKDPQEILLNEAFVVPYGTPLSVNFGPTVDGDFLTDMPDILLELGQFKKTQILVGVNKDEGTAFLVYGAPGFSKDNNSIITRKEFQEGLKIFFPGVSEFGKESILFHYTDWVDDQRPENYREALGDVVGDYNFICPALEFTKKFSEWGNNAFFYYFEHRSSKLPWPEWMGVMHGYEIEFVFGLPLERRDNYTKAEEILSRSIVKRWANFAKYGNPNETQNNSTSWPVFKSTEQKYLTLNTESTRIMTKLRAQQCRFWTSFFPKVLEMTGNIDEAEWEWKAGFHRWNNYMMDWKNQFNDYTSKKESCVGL
Observed property: pIC50

>  <Compound>
Cc1c(C)c2c(c(C)c1O)CCC(C)(C(=O)O)O2 (configuration not stated)

>  <Qualifier symbol>
<

>  <Readout value>
3.00

$$$$
>  <Compound>
COc1ccc2nc3c(c(NCCCCCCCCNC(=O)C4(C)CCc5c(C)c(O)c(C)c(C)c5O4)c2c1)CCCC3 (configuration not stated)

>  <Qualifier symbol>
=

>  <Readout value>
5.82

$$$$
>  <Compound>
Cc1c(C)c2c(c(C)c1O)CCC(C)(C(=O)NCCCCCNc1c3c(nc4ccccc14)CCCC3)O2 (configuration not stated)

>  <Qualifier symbol>
=

>  <Readout value>
6.25

$$$$
>  <Compound>
Cc1c(C)c2c(c(C)c1O)CCC(C)(C(=O)NCCCCCCNc1c3c(nc4ccccc14)CCCC3)O2 (configuration not stated)

>  <Qualifier symbol>
=

>  <Readout value>
6.72

$$$$
>  <Compound>
COc1ccc2nc3c(c(NCCNC(=O)C4(C)CCc5c(C)c(O)c(C)c(C)c5O4)c2c1)CCCC3 (configuration not stated)

>  <Qualifier symbol>
=

>  <Readout value>
5.89

$$$$
>  <Compound>
COc1ccc2nc3c(c(NCCCNC(=O)C4(C)CCc5c(C)c(O)c(C)c(C)c5O4)c2c1)CCCC3 (configuration not stated)

>  <Qualifier symbol>
=

>  <Readout value>
6.21

$$$$
>  <Compound>
COc1ccc2nc3c(c(NCCCCCCNC(=O)C4(C)CCc5c(C)c(O)c(C)c(C)c5O4)c2c1)CCCC3 (configuration not stated)

>  <Qualifier symbol>
=

>  <Readout value>
6.16

$$$$

----------
Listing of entries alongside the reported EC50.

>  <Compound>
COc1ccc2nc3c(c(NCCCNC(=O)C4(C)CCc5c(C)c(O)c(C)c(C)c5O4)c2c1)CCCC3 (stereo not drawn)

>  <Qualifier symbol>
>

>  <EC50 [µM]>
100

$$$$
>  <Compound>
COc1ccc2nc3c(c(NCCCCNC(=O)C4(C)CCc5c(C)c(O)c(C)c(C)c5O4)c2c1)CCCC3 (stereo not drawn)

>  <Qualifier symbol>
>

>  <EC50 [µM]>
100

$$$$
>  <Compound>
Cc1c(C)c2c(c(C)c1O)CCC(C)(C(=O)NCCNc1c3c(nc4ccccc14)CCCC3)O2 (stereo not drawn)

>  <Qualifier symbol>
>

>  <EC50 [µM]>
100

$$$$
>  <Compound>
Cc1c(C)c2c(c(C)c1O)CCC(C)(C(=O)NCCCCCCCNc1c3c(nc4ccccc14)CCCC3)O2 (stereo not drawn)

>  <Qualifier symbol>
>

>  <EC50 [µM]>
100

$$$$
>  <Compound>
Cc1c(C)c2c(c(C)c1O)CCC(C)(C(=O)NCCCCCCNc1c3c(nc4ccccc14)CCCC3)O2 (stereo not drawn)

>  <Qualifier symbol>
=

>  <EC50 [µM]>
61.8

$$$$
>  <Compound>
Cc1c(C)c2c(c(C)c1O)CCC(C)(C(=O)NCCCCCCNc1c3c(nc4cc(Cl)ccc14)CCCC3)O2 (stereo not drawn)

>  <Qualifier symbol>
=

>  <EC50 [µM]>
48.8

$$$$
>  <Compound>
Cc1c(C)c2c(c(C)c1O)CCC(C)(C(=O)NCCCCCCCCNc1c3c(nc4ccccc14)CCCC3)O2 (stereo not drawn)

>  <Qualifier symbol>
=

>  <EC50 [µM]>
66.5

$$$$
>  <Compound>
COc1ccc2nc3c(c(NCCCCCCCCNC(=O)C4(C)CCc5c(C)c(O)c(C)c(C)c5O4)c2c1)CCCC3 (stereo not drawn)

>  <Qualifier symbol>
>

>  <EC50 [µM]>
100

$$$$
>  <Compound>
COc1ccc2nc3c(c(NCCCCCCNC(=O)C4(C)CCc5c(C)c(O)c(C)c(C)c5O4)c2c1)CCCC3 (stereo not drawn)

>  <Qualifier symbol>
=

>  <EC50 [µM]>
58.8

$$$$
>  <Compound>
Cc1c(C)c2c(c(C)c1O)CCC(C)(C(=O)NCCCCNc1c3c(nc4cc(Cl)ccc14)CCCC3)O2 (stereo not drawn)

>  <Qualifier symbol>
=

>  <EC50 [µM]>
50.8

$$$$
>  <Compound>
COc1ccc2nc3c(c(NCCCCCCCNC(=O)C4(C)CCc5c(C)c(O)c(C)c(C)c5O4)c2c1)CCCC3 (stereo not drawn)

>  <Qualifier symbol>
=

>  <EC50 [µM]>
59

$$$$
>  <Compound>
Cc1c(C)c2c(c(C)c1O)CCC(C)(C(=O)NCCCCCCCNc1c3c(nc4cc(Cl)ccc14)CCCC3)O2 (stereo not drawn)

>  <Qualifier symbol>
=

>  <EC50 [µM]>
44.2

$$$$
>  <Compound>
COc1ccc2nc3c(c(N)c2c1)CCCC3

>  <Qualifier symbol>
>

>  <EC50 [µM]>
100

$$$$
